# TESTED_ON: HIV Env of isolate Q259.d2.17 (clade A) (HIV)
# TEST_NAME: cell-based or functional assay
MEASURED_QUANTITY: IC80 (µg/ml) with constrains (µg/mL)
Numbers only, in µg/mL.

Exercise: Indicate the recorded IC80 (µg/ml) with constrains value for this binder: ePGDM9 (antibody, V domains shown) VH: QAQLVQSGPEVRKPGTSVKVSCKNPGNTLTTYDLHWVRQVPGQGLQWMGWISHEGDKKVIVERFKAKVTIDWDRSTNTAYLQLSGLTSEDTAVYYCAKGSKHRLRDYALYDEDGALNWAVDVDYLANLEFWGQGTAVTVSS VL: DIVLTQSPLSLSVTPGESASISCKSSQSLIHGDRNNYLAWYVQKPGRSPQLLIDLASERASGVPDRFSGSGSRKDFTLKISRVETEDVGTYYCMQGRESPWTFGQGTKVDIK
Key: 0.048
